Test system: FTC-133 (Thyroid Gland Carcinoma);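 further: after 72 h of two-drug dosing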
Test: Bliss excess, mean over the matrix (fraction); higher = more synergy
Here the recorded Bliss excess is given for each entry.

- compound: "CN(CCO)CC[C@H](CSc1ccccc1)Nc1ccc(S(=O)(=O)NC(=O)c2ccc(N3CCC([C@@H](O)c4ccccc4-c4ccc(Cl)cc4)CC3)cc2)cc1S(=O)(=O)C(F)(F)F [AZD4320] + Cn1cnc2c(F)c(Nc3ccc(Br)cc3Cl)c(C(=O)NOCCO)cc21 [Selumetinib] (first compound max 1 µM, 7x7, partner max 3 µM)"
  Bliss excess: -0.0023
- compound: "CCc1c2c(nc3ccc(O)cc13)-c1cc3c(c(=O)n1C2)COC(=O)[C@]3(O)CC [SN-38] + CN(C)CCCOc1ccc(-c2ccc3ncc4c(c3c2)n(C2CCOCC2)c(=O)n4C)cn1 [AZD0156] (first compound max 0.3 µM, 7x7, partner max 1 µM)"
  Bliss excess: -0.0031
- compound: "CC1(C)CCC(CN2CCN(c3ccc(C(=O)NS(=O)(=O)c4ccc(NCC5CCOCC5)c([N+](=O)[O-])c4)c(Oc4cnc5[nH]ccc5c4)c3)CC2)=C(c2ccc(Cl)cc2)C1 [Venetoclax] + COc1cc(Nc2ncc3c(n2)-c2ccc(Cl)cc2C(c2c(F)cccc2OC)=NC3)ccc1C(=O)O [Alisertib] (first compound max 1 µM, 7x7, partner max 10 µM)"
  Bliss excess: 0.0138
